Readings of EC50 for the listed compounds
experiment: NF-kB promoter reporter activators, neuronal cells, dose response, cell-based, SH-SY5Y, luciferase (AID 1241); details: fold induction

Ask: # query: EC50 of entry O=C1C(C=Nc2ccc(F)cc2)=C(O)c2ccccc21
Result: 2410 nM

Ask: # query: EC50 of entry Cn1cccc1/C=C1\CCC/C(=C\c2cccn2C)C1=O
Result: 8630 nM

====

Readings of pEC50 for the listed compounds
test: NF-kB promoter reporter activators, neuronal cells, dose response, cell-based, SH-SY5Y, luciferase (AID 1241); details: fold induction
Keep in mind that pEC50 stands for -log10 of concentration in molar terms.

Some entries whose results are on file:
[[record]]
compound = "COc1cccc(CNc2cnc3ccccc3c2)c1O"
quantity_kind = "pEC50"
meas_value = 4.86

[[record]]
compound = "Cc1ccsc1/C=N/Nc1cccc(C(=O)O)c1"
quantity_kind = "pEC50"
meas_value = 5.98

[[record]]
compound = "CN(C)C(=O)Oc1ccc(-c2cn3cc(Cl)ccc3n2)cc1"
quantity_kind = "pEC50"
meas_value = 5.49


Ask: # query: pEC50 of entry CNC(=O)Oc1cccc(-c2cn3cc(Cl)ccc3n2)c1
Result: 5.90

Ask: # query: pEC50 of entry O=C(Nc1nc2ccc(F)cc2s1)c1cccs1
Result: 5.34

Ask: # query: pEC50 of entry O=C(c1ccccc1)n1ccc(-c2cnc(-c3ccccc3)s2)n1
Result: 5.83

====

Readings of pEC50 for the listed molecules
assay: NF-kB promoter reporter activators, neuronal cells, dose response, cell-based, SH-SY5Y, luciferase (AID 1241); conditions: fold induction
Keep in mind that pEC50 stands for -log10 of concentration in molar terms.

[[record]]
molecule = "Cc1nn(-c2nc3ccccc3s2)c(N)c1-c1ccccc1"
meas_value = 5.01


Ask: # query: pEC50 of entry O=C(O)c1cc(N/N=C/c2ccc3c(c2)OCCO3)ccc1Cl
Result: 4.58

Ask: # query: pEC50 of entry COc1ccc2c(c1)CC/C(=C/c1ccco1)C2=O
Result: 5.76

====

Readings of EC50 for the listed compounds
assay: NF-kB promoter reporter activators, neuronal cells, dose response, cell-based, SH-SY5Y, luciferase (AID 1241); conditions: fold induction

[[record]]
compound = "O=C(Nc1nc(-c2ccc3c(c2)OCCO3)cs1)C1CCCC1"
meas_value = "13.7 µM"


Ask: # query: EC50 of entry Cc1ccc(-c2cc(-c3cccs3)[nH]n2)c(O)c1
Result: 13.1 µM

Ask: # query: EC50 of entry CC(C)c1ccc(Nc2nc(CC(=O)O)cs2)cc1
Result: 5.81 µM

====

Readings of EC50 for the listed compounds
assay: NF-kB promoter reporter activators, neuronal cells, dose response, cell-based, SH-SY5Y, luciferase (AID 1241); conditions: fold induction

[[record]]
compound = "Cc1ccc(-c2nc3ccccc3[nH]2)s1"
quantity_kind = "EC50"
meas_value = "6090 nM"


Ask: # query: EC50 of entry S=C(c1ccc(-c2ccc(Cl)c(Cl)c2)o1)N1CCOCC1
Result: 5190 nM

Ask: # query: EC50 of entry CCc1ccc(NC(=O)c2cnn(-c3ccccc3)c2C)cc1
Result: 2560 nM

Ask: # query: EC50 of entry COc1ccc(N/C=C\C(=O)c2ccc3c(c2)OCO3)cc1
Result: 1630 nM

Ask: # query: EC50 of entry NC(=O)c1ccsc1NC(=O)c1ccc2c(c1)CCCC2
Result: 455 nM

Ask: # query: EC50 of entry Oc1ccc(-c2cn3cc(C(F)(F)F)ccc3n2)cc1
Result: 1190 nM

Ask: # query: EC50 of entry Cc1ccnc(NC(=O)CCCOc2cc(=O)n(C)c3ccccc23)c1
Result: 10500 nM

Ask: # query: EC50 of entry O=C(NCCSc1ccccn1)c1ccc(Cl)cc1
Result: 2700 nM

Ask: # query: EC50 of entry c1ccc(CSCc2cn3ccsc3n2)cc1
Result: 12600 nM
